Test system: CD2F1 mice, L1210 leukemia ip, survival T/C
Test: NCI In Vivo Anticancer Drug Screen. Data for tumor model L1210 Leukemia (intraperitoneal) in CD2F1 (CDF1) mice
Settings: endpoint: mean survival time; dose: 100.0 mg/kg/injection; schedule: Q01DX001 (ip); vehicle: saline with Tween-80; higher = longer survival
Inconclusive results and toxic doses are left out.
Reported T/C values for the following compounds.
assay-metric: T/C

# compound, obs-value
measured = [
    ("C=C=CCCCCOC1CCCCO1 (configuration not stated)", "89 % of control"),
    ("C=C1CC(Cc2ccccc2)OC1=O (configuration not stated)", "101 % of control"),
    ("NCS(=O)(=O)O", "98 % of control"),
    ("O=C1c2ccccc2C(=O)c2c(O)ccc(O)c21", "88 % of control"),
    ("c1ccc(C2=C(c3ccccn3)N=c3ccccc3=c3ccccc3=N2)nc1", "101 % of control"),
    ("O=C(N/N=C/c1ccc2c(c1)CCC2)c1cc2ccccc2cc1O", "92 % of control"),
    ("COC1OC2COc3ccccc3OC2C(NC(=O)Oc2ccccc2)C1O (configuration not stated)", "94 % of control"),
]
